test: small molecules captured by biotinylated probe aFSTL3 – biochemical, small-molecule microarray, fluorescence 635/667, stem cell growth factor project, primary screen (AID 1064); conditions: higher = more signal;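 note: measures binding of the biotinylated anti-FSTL3 antibody to printed compounds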
MEASURED_ENDPOINT: composite z-score
One number for each entry.

[
  {
    "COMPOUND": "O=C1C2C=CC(C(O)c3cc(C(F)(F)F)cc(C(F)(F)F)c3)N(Nc3ccccc3)C2C(=O)N1c1ccccc1 (stereo not given)",
    "composite z-score": 0.281
  },
  {
    "COMPOUND": "COc1cc(OC)c(C(O)C2C=CC3C(=O)NC(=O)C3N2Nc2ccccn2)cc1Br (stereo not given)",
    "composite z-score": 0.159
  },
  {
    "COMPOUND": "COC(=O)c1c2oc(c1C(=O)OC)C(=O)N[C@@H](C(C)C)Cn1cc(nn1)C1(CCCCC1)NC(=O)N[C@H](CO)CC2",
    "composite z-score": -0.458
  },
  {
    "COMPOUND": "CN1C(=O)C2C=CC(C(O)C=Cc3ccc([N+](=O)[O-])cc3)N(Nc3ccccc3)C2C1=O (stereo not given)",
    "composite z-score": -0.283
  }
]

Hi! Can you tell me composite z-score for each of these compounds?
1. COC(=O)C(CC#Cc1ccc2c(c1)[C@]1(C(=O)N2)[C@H](c2ccc(O)cc2)N2[C@H](c3ccccc3)[C@H](c3ccccc3)OC(=O)[C@H]2[C@@H]1C(=O)N1CCN(c2ncccn2)CC1)C(=O)OC
2. C[N+](C)(C)CCCC[C@@H]1NC(=O)[C@@H]2C[C@H](C(=O)NCCCCCN)[C@H](c3ccc(O)cc3)N2C1=O
3. COC(=O)[C@H](Cc1ccccc1)N[C@H](/C=C/C1CC1)[C@@H](O)Cc1ccccc1
4. O=C1[C@H]2C=C(I)[C@H](C[C@@H]2OCCCCO)[C@@]12CO2
5. C#CCOc1ccc(C[C@@H](C(=O)OC)N(CC#C)[C@@H](/C=C/C2CC2)[C@H](O)Cc2ccccc2)cc1
6. CCOC(=O)C1=CC[C@H]2C(=O)N(c3ccccc3)C(=O)[C@@H]12
7. COC(=O)[C@@]1(CCC(=O)OC(C)(C)C)N=C(c2ccc(OCCCO)cc2)O[C@H]1c1ccccc1

Response:
[0.136, 0.419, 0.128, -0.0695, 0.282, -0.368, 0.579]

Hi! Can you tell me composite z-score for each of these compounds?
1. COCCOC(=O)N1C(=O)[C@@]2(c3cc(C#CC4(O)CCCCCC4)ccc31)[C@H](c1ccccc1OCCO)N1[C@H](c3ccccc3)[C@H](c3ccccc3)OC(=O)[C@H]1[C@@H]2C(=O)N1CCc2cc(OC)c(OC)cc2C1
2. COCCCNC(=O)[C@@]1(Sc2ccc(C)cc2)CC(=O)N(Cc2ccccc2Cl)[C@@H]1c1ccc(CO)cc1
3. COc1ccc(C(O)C2C=CC3C(=O)N(C)C(=O)C3N2NC(=O)OC(C)(C)C)c2ccccc12 (stereo not given)
4. O=C1N(CCS(=O)(=O)c2ccccc2)c2ccccc2[C@@H]2OC(c3ccc(OCCCO)cc3)=N[C@]12Cc1ccccc1

Response:
[-0.207, 0.59, 0.152, -0.0695]

---

tested on: Sonic hedgehog protein (Shh); assay: Sonic hedgehog microarray binding compounds – biochemical, small-molecule microarray, 635/667 nm fluorescence, primary screen (AID 1151); conditions: 635 nm fluorescence, higher = more signal;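 note: Shh protein binding to compounds spotted on small-molecule microarray slides; score combines spot fluorescence intensity with signal-to-noise across triplicate slides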
Kind request: treat 0.009 as inclusive, so composite z-score at 0.009 or higher is Y, anything lower is N.

Request: Answer whether composite z-score of CCC(CC)C(O)C1C=CC2C(=O)N(c3ccccc3)C(=O)C2N1Nc1ccccc1 (stereo not drawn) is greater than or equal to 0.009.
Response: Y

Request: Answer whether composite z-score of `CCCC[C@H]1C[C@@H]1[C@@H]1N(P(=O)(c2ccccc2)c2ccccc2)C[C@@](O)(c2ccccc2)CC12CC2` is greater than or equal to 0.009.
Response: N

---

system: Inhibin beta A chain (activin A); experiment: small molecules binding activin A – biochemical, small-molecule microarray, 635 nm fluorescence scan, primary screen (AID 1107); details: INHBA, higher = more signal;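 note: mouse activin A protein probed at 4.33 µg/mL on printed slides; score merges bound-protein fluorescence near 667 nm with spot signal-to-noise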
Categorize each record by its composite z-score using LOW = under 0.02, MID = from 0.02 up to 0.9, HIGH = 0.9 and over

Here's what some known entries look like.
[
  {
    "COMPOUND": "COC(=O)[C@@]1(Cc2ccccc2)[C@H]2c3cc(C(=O)N4CCCC4)n(Cc4c(CO)[nH]cc(C)c4=O)c3C[C@H]2CN1C(=O)c1ccccc1",
    "CLASS": "HIGH"
  },
  {
    "COMPOUND": "CCCCC(=C=CC[C@@H](O)c1cccc(OCCO)c1)C[C@@H](O)c1ccccn1",
    "CLASS": "MID"
  }
]

Request: Which bin should I file NC(=O)N1C(=O)C2C(C1=O)C1C=C(CCCO)C2C(C2CC2)N1Cc1cc2c(cc1Br)OCO2 (stereo not given) under?
Response: HIGH

Request: Which bin should I file `O=C1C[C@@](C(=O)NCc2ccccc2)(c2ccc([N+](=O)[O-])cc2)[C@@H](c2ccc(CO)cc2)N1CC12CC3CC(CC(C3)C1)C2` under?
Response: LOW

Request: Which bin should I file O=C1OCCC=C[C@H]2OC34C=CCN(CCN5CCOCC5)C(=O)[C@H]3N(CCCCCO)C(=O)[C@@H]4C12 (stereo not given in full) under?
Response: LOW

Request: Which bin should I file `CN(C)CCCCCCNC(=O)[C@@H]1C[C@@H]2C(=O)N[C@@H](CCCC[N+](C)(C)C)C(=O)N2[C@@H]1c1ccc(O)cc1` under?
Response: LOW

Request: Which bin should I file `COC(=O)c1c2oc(c1C(=O)OC)C(=O)NC1(CCCCC1)c1cn(nn1)C[C@H](Cc1ccccc1)NC(=O)N[C@H](CO)CC2` under?
Response: LOW

Request: Which bin should I file `CCOC(=O)C1=CC[C@@H](c2ccccc2)N(S(=O)(=O)c2ccc(C)cc2)[C@H]1c1ccc(CC)cc1` under?
Response: HIGH

Request: Which bin should I file `CCCC=C(CCC)[C@@H](NC(=O)OCC(C)C)c1ccccc1` under?
Response: MID

Request: Which bin should I file CCN(CC)c1ccc(N2CC=CC34O[C@@H]5/C=C\CCC(C)OC(=O)C5[C@H]3C(=O)N(CCCCCO)[C@@H]4C2=O)cc1 (stereo not given in full) under?
Response: MID

---

molecular target: Left-right determination factor 2 (Homo sapiens) (UniProt O00292); assay: small molecules binding LEFTY2 protein – biochemical, small-molecule microarray, 635 nm fluorescence scan, primary screen (AID 1110); settings: higher = more signal
Sequence (O00292 whole entry, looked up): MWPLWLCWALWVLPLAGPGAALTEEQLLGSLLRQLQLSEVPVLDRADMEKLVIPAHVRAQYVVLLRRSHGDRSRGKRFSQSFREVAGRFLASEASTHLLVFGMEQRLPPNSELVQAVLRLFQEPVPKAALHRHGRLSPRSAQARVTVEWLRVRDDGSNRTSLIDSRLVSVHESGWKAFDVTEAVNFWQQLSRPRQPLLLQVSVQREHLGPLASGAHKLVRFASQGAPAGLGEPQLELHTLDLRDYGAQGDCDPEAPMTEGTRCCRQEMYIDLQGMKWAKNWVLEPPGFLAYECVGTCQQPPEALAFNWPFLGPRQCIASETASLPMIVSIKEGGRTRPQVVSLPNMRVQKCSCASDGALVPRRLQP
Kind request: treat 0.2 as inclusive, so composite z-score at 0.2 or higher is condition met, anything lower is condition not met.

Here's what some known entries look like.
[
  {
    "MOLECULE": "COc1cc2c(cc1O)C(c1cccs1)N(Cc1ccc([N+](=O)[O-])o1)CC2 (centres undefined)",
    "TGT": "Left-right determination factor 2 (Homo sapiens) (UniProt O00292)",
    "CLASS": "condition not met"
  },
  {
    "MOLECULE": "CCCCC(O)C1C=CC2C(=O)N(C)C(=O)C2N1N1CCCCC1 (centres undefined)",
    "TGT": "Left-right determination factor 2 (Homo sapiens) (UniProt O00292)",
    "CLASS": "condition met"
  },
  {
    "MOLECULE": "CS(=O)(=O)CCOC(=O)C1=CC(CCCO)=CC(C2CC2)N(Cc2cc3c(cc2Br)OCO3)C=C1C(=O)OCCS(C)(=O)=O (centres undefined)",
    "TGT": "Left-right determination factor 2 (Homo sapiens) (UniProt O00292)",
    "CLASS": "condition not met"
  },
  {
    "MOLECULE": "O=C(NC1CC1)[C@@H]1c2ccccc2C(=O)N(C2Cc3ccccc3C2)[C@H]1c1ccc(CO)cc1",
    "TGT": "Left-right determination factor 2 (Homo sapiens) (UniProt O00292)",
    "CLASS": "condition met"
  },
  {
    "MOLECULE": "CCCNC(=O)[C@@H]1c2ccccc2C(=O)N(Cc2ccccc2OC)[C@H]1c1ccc(CO)cc1",
    "TGT": "Left-right determination factor 2 (Homo sapiens) (UniProt O00292)",
    "CLASS": "condition not met"
  },
  {
    "MOLECULE": "COc1ccc([C@H]2C[C@H]3C(I)=C[C@@H]2C(=O)[C@]32CO2)cc1",
    "TGT": "Left-right determination factor 2 (Homo sapiens) (UniProt O00292)",
    "CLASS": "condition not met"
  },
  {
    "MOLECULE": "OCC1C=C(/C=C/c2ccccc2)CN1Cc1ccccc1Br (centres undefined)",
    "TGT": "Left-right determination factor 2 (Homo sapiens) (UniProt O00292)",
    "CLASS": "condition met"
  },
  {
    "MOLECULE": "C#CCN1[C@@H](Cc2ccc(O)cc2)C(=O)O[C@H](Cc2ccccc2)[C@@H]1/C=C/C1CC1",
    "TGT": "Left-right determination factor 2 (Homo sapiens) (UniProt O00292)",
    "CLASS": "condition met"
  }
]

Shifting focus to the molecule that follows.
Request: Answer whether composite z-score of `C=C(CCCC)/C(=C/C[C@H](OC(C)=O)c1ccccc1OCCO)c1cnc2ccccc2c1` is greater than or equal to 0.2.
Response: condition not met
